Assay: DRUGMATRIX: Sigma2 radioligand binding (ligand: [3H] Ifenprodil)
Assay type: cell membranes, Rattus norvegicus, Wistar, Brain, Membrane
Settings: Not Active = under 50% inhibition at 10 µM
measure.name: IC50

CCCC[C@@H](CC)COC(=O)c1ccccc1C(=O)OC[C@@H](CC)CCCC [BIS(2-ETHYLHEXYL)PHTHALATE]	Not Active
c1ccc2c(c1)cc1ccc3cccc4ccc2c1c34	Not Active
NC(CO)(CO)CO [TROMETHAMINE]	Not Active
O=C1OCCN1/N=C/c1ccc([N+](=O)[O-])o1 [FURAZOLIDONE]	Not Active
CNCCC=C1c2ccccc2CCc2ccccc21 [NORTRIPTYLINE]	Not Active
N#C[C@H](O[C@@H]1O[C@H](CO[C@@H]2O[C@H](CO)[C@@H](O)[C@H](O)[C@H]2O)[C@@H](O)[C@H](O)[C@H]1O)c1ccccc1 [AMYGDALIN]	Not Active
O=P1(NCCCl)OCCCN1CCCl (configuration not stated) [IFOSFAMIDE]	Not Active
Cc1ccccc1N1CCN(CCc2nnc3n2CCCC3)CC1 [DAPIPRAZOLE]	Not Active

Query string: Entry CN1C(C(=O)Nc2ccccn2)=C(O)c2ccccc2S1(=O)=O [PIROXICAM] : reported IC50 = ?
Result string: Not Active

Query string: Entry O=C1OC2(c3ccc(O)cc3Oc3cc(O)ccc32)c2ccccc21 [FLUORESCEIN] : reported IC50 = ?
Result string: Not Active

Query string: Entry NC(=O)c1ccccc1O [SALICYLAMIDE] : reported IC50 = ?
Result string: Not Active

Query string: Entry CC(=O)O[C@]1(C(C)=O)CC[C@H]2[C@@H]3C=C(Cl)C4=CC(=O)CC[C@]4(C)[C@H]3CC[C@@]21C [CHLORMADINONE ACETATE] : reported IC50 = ?
Result string: Not Active

Query string: Entry CC[C@@]1(O)C(=O)OCc2c1cc1n(c2=O)Cc2cc3ccccc3nc2-1 [CAMPTOTHECIN] : reported IC50 = ?
Result string: Not Active

Query string: Entry CO[C@@H]1[C@@H](O[C@@H]2O[C@H](C)[C@@H](O[C@H]3C[C@@](C)(O)[C@@H](OC(=O)CC(C)C)[C@H](C)O3)[C@H](N(C)C)[C@H]2O)[C@@H](CC=O)C[C@@H](C)[C@@H](O)/C=C/C=C/C[C@@H](C)OC(=O)C[C@H]1O [KITASAMYCIN] : reported IC50 = ?
Result string: Not Active

Query string: Entry CN(C)CCCC1(c2ccc(F)cc2)OCc2cc(C#N)ccc21 (configuration not stated) [CITALOPRAM] : reported IC50 = ?
Result string: Not Active

Query string: Entry COc1ccc(C(CN(C)C)C2(O)CCCCC2)cc1 (configuration not stated) [VENLAFAXINE] : reported IC50 = ?
Result string: Not Active

Query string: Entry CN(N=O)C(=O)N[C@@H](C=O)[C@@H](O)[C@H](O)[C@H](O)CO [STREPTOZOCIN] : reported IC50 = ?
Result string: Not Active
